# System Tested: Gal(a1-3)[Gal(a1-4)]Gal(b1-4)GlcNAc
# Experiment: glycan array binding signal (z-score within array); higher = stronger binding
# Stated Conditions: glycan notation: IUPAC condensed, linker removed
About 410 targets per protein were measured; listed, in parts, are those with the strongest signals and a random draw of the rest.
The reader will find reported glycan array binding signal (z-score) values listed item by item below.
Could you keep your reply to the number by itself?

Worked examples follow.
[
  {
    "Binder": "ArathEULS3 TAP (Arabidopsis thaliana) (protein) IDENLYFQGGSMDEKTTGWRGGHVVEGLAGELEQLRARLEHHPQGQREPGGGGSLEITSLYKKAGFMEHHHQHHRHHQRDDGEDDRQSFGVPPPHVDAPPQPHGLYQSQPHFDPYAPTPQAPAPYRSETQFEPHAPPPYRSEPYFETPAPPPSFGHVSHVGHQSPNESYPPEHHRYGGYQQPSNSLLESHGDHSGVTHVAHHSSNQPQSSSGVYHKPDENRLPDNLAGLAGRATVKVYSKAEPNYNLTIRDGKVILAPADPSDEAQHWYKDEKYSTKVKDADGHPCFALVNKATGEAMKHSVGATHPVHLIRYVPDKLDESVLWTESKDFGDGYRTIRMVNNTRLNVDAYHGDSKSGGVRDGTTIVLWDWNKGDNQLWKIFPF",
    "Measure Name": "glycan array binding signal (z-score)",
    "Observed Value": 2.15
  },
  {
    "Binder": "YASPKCFRYPNGVLACT [Odorranalectin (Odorrana grahami), B3TFE9_RANGR]",
    "Measure Name": "glycan array binding signal (z-score)",
    "Observed Value": 1.47
  },
  {
    "Binder": "SP15308A-bot-339-19-339 (Bacteroides ovatus) (protein) ACNNEWEDEQYEQYISFKSPIPAGGEGVTDIYVRYKEDGKVTYRLPIVVSGSTTNTLDREVHIAVDKDTLETLNIERFSIHRPGLWYTALEEDKYDFPKTVHISAGSSVEQLNIDFNLQGIDMLEKWVLPLTIVDDPSYNYKSHPRKNYAKALLRVIPFNNYSGSYTSSAMKVYTYINGKPDTNARTANKRTGYVINDNTVFFYAGLISEDLDKEVREKYKINVHFNEDGTLHMEQGDPTNKMKFELIGTPTYSKTSVMDATRPYLERRYVQIMFEYDFEDFSYGGNGVDVIPIKYKVEGSMTLQRNINTQIPDEDQQIEW",
    "Measure Name": "glycan array binding signal (z-score)",
    "Observed Value": 1.28
  }
]

Lookup result for SBD-G4S3-Fc (protein) MASIPSSASVQLDSYNYDGSTFSGKIYVKNIAYSKKVTVVYADGSDNWNNNGNIIAASFSGPISGSNYEYWTFSASVKGIKEFYIKYEVSGKTYYDNNNSANYQVSTGGGGSGGGGSGGGGSEFVPRDCGCKPCICTVPEVSSVFIFPPKPKDVLTITLTPKVTCVVVDISKDDPEVQFSWFVDDVEVHTAQTQPREEQFNSTFRSVSELPIMHQDWLNGKEFKCRVNSAAFPAPIEKTISKTKGRPKAPQVYTIPPPKEQMAKDKVSLTCMITDFFPEDITVEWQWNGQPAENYKNTQPIMDTDGSYFVYSKLNVQKSNWEAGNTFTCSVLHEGLHNHHTEKSLSHSPGAA ; measured glycan array binding signal (z-score): 1.33

Reported glycan array binding signal (z-score) of HFR-1 (Triticum aestivum) (protein) MSPQSFTLETTTTTPAAKGSDPSYFQSAPACHEMIQHKELLLHLYAYQNVQKTPDANQAVIVESKRPECFGILAANDWTVYDGPAHNANLVAHAQGLHLGASMAKENWFICFNMVFVNQRFTGSSFKVMGDFQGTAHNGEWAIVGGTGEFAYAQGVIAFKKTQQSERNARMELHVRAMCLSFLRPLLSLGDGSAVAKIGPWGKMSGELLDIPSTPQRLERITIRHGVVIDSLAFSFIDKAGEPYNVGPWGGRRGDNKDTIELAPSEIVTEVSGTVGIFAEDNVEYNAIASLTITTNHRPYGPFGETQSTPFSVPVQDNNNIVGFFACAGKYVEALGVYVRSPVST : -0.199

Data origin: the supplement of paper PMC8728848
